- assay summary: in vitro
- experimental conditions: human, WI-38 cells
- Description: Cytotoxicity against human WI-38 cells assessed as inhibition of cell growth measured after 48 hrs by MTT assay
reported metric: IC50 at 48 h
Provide a numeric answer, followed by its unit.

Worked cases, IC50 at 48 h given:
Cc1c(NC(=O)CN2C(=O)S/C(=C\c3ccc(Cl)cc3)C2=O)c(=O)n(-c2ccccc2)n1C = 54.4 µM
COc1ccc(/C=C2\SC(=O)N(CC(=O)Nc3c(C)n(C)n(-c4ccccc4)c3=O)C2=O)cc1 = 52.9 µM

Now turn to the next compound.
Noted for COc1ccc(/C=C2\SC(=O)N(CCNC(=O)Nc3c(C)n(C)n(-c4ccccc4)c3=O)C2=O)cc1 : its IC50 at 48 h reads 34.5 µM

---

// reported pIC50 per item
- Tested on: HepG2
- assay summary: cells
- Type: functional, cell-based
- experimental conditions: Homo sapiens, HepG2, 48 h
- Description: Cytotoxicity against human HepG2 cells assessed as inhibition of cell growth measured after 48 hrs by MTT assay
As a rule, pIC50 stands for the negative log10 of the concentration, concentration in M.

Cc1ccc(/C=C2\SC(=O)N(CC(=O)Nc3c(C)n(C)n(-c4ccccc4)c3=O)C2=O)cc1 = 4.24
Cc1c(NC(=O)CN2C(=O)S/C(=C\c3ccc(Br)cc3)C2=O)c(=O)n(-c2ccccc2)n1C = 4.72
Cc1c(NC(=O)CN2C(=O)S/C(=C\c3ccc(Cl)cc3)C2=O)c(=O)n(-c2ccccc2)n1C = 4.50
Cc1c(NC(=O)NCCN2C(=O)S/C(=C\c3ccc(Br)cc3)C2=O)c(=O)n(-c2ccccc2)n1C = 4.28
Cc1c(NC(=O)NCCN2C(=O)S/C(=C\c3ccc(Cl)cc3)C2=O)c(=O)n(-c2ccccc2)n1C = 4.41

Lab note: measured pIC50 of COc1ccc(/C=C2\SC(=O)N(CCNC(=O)Nc3c(C)n(C)n(-c4ccccc4)c3=O)C2=O)cc1 was 5.08

Lab note: measured pIC50 of COc1ccc(/C=C2\SC(=O)N(CC(=O)Nc3c(C)n(C)n(-c4ccccc4)c3=O)C2=O)cc1 was 4.16

Cc1ccc(/C=C2\SC(=O)N(CCNC(=O)Nc3c(C)n(C)n(-c4ccccc4)c3=O)C2=O)cc1 has a reported pIC50 of 4.59

---

- Tested on: PC-3
- assay summary: Cytotoxicity against human PC-3 cells assessed as inhibition of cell growth measured after 48 hrs by MTT assay
- Format: functional, cell-based
- experimental conditions: PC-3, 48 h
Listed here: items and their measured pIC50.
In textbook form, pIC50 equals minus log to base ten of the concentration in mol/L.

Field pIC50 (entry COc1ccc(/C=C2\SC(=O)N(CC(=O)Nc3c(C)n(C)n(-c4ccccc4)c3=O)C2=O)cc1 ) reads 4.03

Please fill in: pIC50 reported for Cc1c(NC(=O)NCCN2C(=O)S/C(=C\c3ccc(Cl)cc3)C2=O)c(=O)n(-c2ccccc2)n1C = 4.40

The recorded pIC50 for Cc1c(NC(=O)CN2C(=O)S/C(=C\c3ccc(Cl)cc3)C2=O)c(=O)n(-c2ccccc2)n1C is 4.54

---

- assay summary: in vitro
- experimental conditions: human, WI-38 cells
Below, each of the molecules is paired with its reported IC50 at 48 h value.
Please give a number only; it is taken to be in µM.

COc1cc(/C=C2\SC(=O)N(CCNC(=O)Nc3c(C)n(C)n(-c4ccccc4)c3=O)C2=O)cc(OC)c1OC = 51.5

The recorded IC50 at 48 h for Cc1ccc(/C=C2\SC(=O)N(CC(=O)Nc3c(C)n(C)n(-c4ccccc4)c3=O)C2=O)cc1 is 83.7

Query Cc1c(NC(=O)NCCN2C(=O)S/C(=C\c3ccc(Cl)cc3)C2=O)c(=O)n(-c2ccccc2)n1C yields IC50 at 48 h of 27.5

For Cc1ccc(/C=C2\SC(=O)N(CCNC(=O)Nc3c(C)n(C)n(-c4ccccc4)c3=O)C2=O)cc1 the molecule record lists IC50 at 48 h as 48.1

The reported IC50 at 48 h of the molecule Cc1c(NC(=O)CN2C(=O)S/C(=C\c3ccc(Br)cc3)C2=O)c(=O)n(-c2ccccc2)n1C was 66.7

What the record says about Cc1c(NC(=O)NCCN2C(=O)S/C(=C\c3ccc([N+](=O)[O-])cc3)C2=O)c(=O)n(-c2ccccc2)n1C : IC50 at 48 h is 76.4

Field IC50 at 48 h (entry Cc1c(NC(=O)CN2C(=O)S/C(=C\c3ccc([N+](=O)[O-])cc3)C2=O)c(=O)n(-c2ccccc2)n1C ) reads 43.8

---

- System: PC-3
- assay summary: Cytotoxicity against human PC-3 cells assessed as inhibition of cell growth measured after 48 hrs by MTT assay
- Type: functional, cell-based
- experimental conditions: PC-3, 48 h
reported metric: IC50 (µM)
The response must be a number in µM with no trailing unit.

O=C(CCCCCCC(=O)Nc1ccccc1)NO = 3.6
Cc1c(NC(=O)CN2C(=O)S/C(=C\c3ccc(Br)cc3)C2=O)c(=O)n(-c2ccccc2)n1C = 17.1
COc1ccc(/C=C2\SC(=O)N(CCNC(=O)Nc3c(C)n(C)n(-c4ccccc4)c3=O)C2=O)cc1 = 13.9
Cc1ccc(/C=C2\SC(=O)N(CC(=O)Nc3c(C)n(C)n(-c4ccccc4)c3=O)C2=O)cc1 = 45.3
Cc1c(NC(=O)NCCN2C(=O)S/C(=C\c3ccc([N+](=O)[O-])cc3)C2=O)c(=O)n(-c2ccccc2)n1C = 69.3

// recorded IC50 for Cc1ccc(/C=C2\SC(=O)N(CCNC(=O)Nc3c(C)n(C)n(-c4ccccc4)c3=O)C2=O)cc1 : 58.6

# IC50 (compound: COc1cc(/C=C2\SC(=O)N(CCNC(=O)Nc3c(C)n(C)n(-c4ccccc4)c3=O)C2=O)cc(OC)c1OC ) is 35.4

---

- Test system: HCT-116
- assay summary: cells
- Format: functional, cell-based
- experimental conditions: Homo sapiens, HCT-116, 48 h
- Description: Cytotoxicity against human HCT-116 cells assessed as inhibition of cell growth measured after 48 hrs by MTT assay
reported metric: pIC50
# pIC50 = -log10(concentration in molar units)

Before answering, review these 6 worked examples.
Cc1c(NC(=O)CN2C(=O)S/C(=C\c3ccc([N+](=O)[O-])cc3)C2=O)c(=O)n(-c2ccccc2)n1C = 4.04
Cc1c(NC(=O)CN2C(=O)S/C(=C\c3ccc(Br)cc3)C2=O)c(=O)n(-c2ccccc2)n1C = 5.11
Cc1ccc(/C=C2\SC(=O)N(CC(=O)Nc3c(C)n(C)n(-c4ccccc4)c3=O)C2=O)cc1 = 4.32
COc1cc(/C=C2\SC(=O)N(CCNC(=O)Nc3c(C)n(C)n(-c4ccccc4)c3=O)C2=O)cc(OC)c1OC = 4.90
Cc1c(NC(=O)NCCN2C(=O)S/C(=C\c3ccc([N+](=O)[O-])cc3)C2=O)c(=O)n(-c2ccccc2)n1C = 4.35
Cc1c(NC(=O)NCCN2C(=O)S/C(=C\c3ccc(Br)cc3)C2=O)c(=O)n(-c2ccccc2)n1C = 4.11

Per the reported HCT-116 data, Cc1ccc(/C=C2\SC(=O)N(CCNC(=O)Nc3c(C)n(C)n(-c4ccccc4)c3=O)C2=O)cc1 has pIC50 of 4.49

Observed pIC50 on HCT-116, entry COc1ccc(/C=C2\SC(=O)N(CCNC(=O)Nc3c(C)n(C)n(-c4ccccc4)c3=O)C2=O)cc1 , equals 5.50

---

- Test system: HepG2
- assay summary: cells
- Assay type: functional, cell-based
- experimental conditions: Homo sapiens, HepG2, 48 h
IC50: recorded values
Write your answer as a measured quantity: the number, then the unit.

Cc1c(NC(=O)NCCN2C(=O)S/C(=C\c3ccc([N+](=O)[O-])cc3)C2=O)c(=O)n(-c2ccccc2)n1C = 14 µM

The reported value for COc1cc(/C=C2\SC(=O)N(CCNC(=O)Nc3c(C)n(C)n(-c4ccccc4)c3=O)C2=O)cc(OC)c1OC in terms of IC50 is 10.8 µM

For Cc1c(NC(=O)CN2C(=O)S/C(=C\c3ccc([N+](=O)[O-])cc3)C2=O)c(=O)n(-c2ccccc2)n1C the compound record lists IC50 as 84.3 µM

---

For Histone deacetylase 2 (Homo sapiens, UniProt Q92769), measured IC50 is reported for the entries below.
Express it in nM; write the number only.

IC50 value, target or system Histone deacetylase 2 (Homo sapiens, UniProt Q92769), for Cc1c(NC(=O)CN2C(=O)S/C(=C\c3ccc(Br)cc3)C2=O)c(=O)n(-c2ccccc2)n1C : 3850

Item: Cc1c(NC(=O)NCCN2C(=O)S/C(=C\c3ccc([N+](=O)[O-])cc3)C2=O)c(=O)n(-c2ccccc2)n1C | System: Histone deacetylase 2 (Homo sapiens, UniProt Q92769) | IC50: 526

Field IC50 (system: Histone deacetylase 2 (Homo sapiens, UniProt Q92769)) for entry COc1ccc(/C=C2\SC(=O)N(CCNC(=O)Nc3c(C)n(C)n(-c4ccccc4)c3=O)C2=O)cc1 = 834
